# Tested on: promastigotes of Leishmania amazonensis (IFLA/BR/67/PH8)
# Experiment Summary: Antileishmanial activity against promastigotes (MTT viability)
# Type: cell-based
# Recorded Conditions: Leishmania amazonensis; promastigotes of L. amazonensis, 72 h incubation, MTT; average of three independent experiments ± standard error of the mean; read-out: IC50
# Procedure: The promastigote viabilities were determined by the ability of living cells to reduce the yellow MTT (3-(4,5-dimethylthiazol-2-yl)-2,5-diphenyltetrazolium bromide, a tetrazole) to purple formazan. […] The growth of promastigotes forms was evaluated simultaneously in the presence of Glucantime®, as reference drug. […] The percentage viability was calculated from the ratio of OD readings in the wells with compounds versus the wells without compounds × 100. […]
Reported Endpoint: pIC50
Convention used: pIC50 is expressed as -log10 of the molar concentration.

Below are worked cases with known answers.
- C=C(C(=O)Oc1cc(C)ccc1C(C)C)C(O)c1ccccc1[N+](=O)[O-] (centres unmarked): 5.23
- C=C(C(=O)Oc1cc(C(C)C)ccc1C)C(O)c1cccc([N+](=O)[O-])c1 (centres unmarked): 4.65
- C=CCc1ccc(OC(=O)C(=C)C(O)c2ccccc2[N+](=O)[O-])c(OC)c1 (centres unmarked): 5.33
- C[C@@H]1[C@H](O)[C@@H](C)/C=C/C=C/C=C/C=C/C=C/C=C/C=C/[C@H](O[C@@H]2O[C@H](C)[C@@H](O)[C@H](N)[C@@H]2O)C[C@@H]2O[C@](O)(C[C@@H](O)C[C@@H](O)[C@H](O)CC[C@@H](O)C[C@@H](O)CC(=O)O[C@H]1C)C[C@H](O)[C@H]2C(=O)O: 6.28
- Cc1ccc(C(C)C)c(O)c1: 3.94
- C=C(C(=O)Oc1cc(C(C)C)ccc1C)C(O)c1ccccc1[N+](=O)[O-] (centres unmarked): 4.87

Looking up C=C(C(=O)Oc1cc(C(C)C)ccc1C)C(O)c1ccc([N+](=O)[O-])cc1 (centres unmarked) , I found its pIC50 recorded as 4.74

Looking up C=C(C(=O)Oc1cc(C)ccc1C(C)C)C(O)c1ccc([N+](=O)[O-])cc1 (centres unmarked) , I found its pIC50 recorded as 4.94

Looking up C=C(C(=O)Oc1cc(C)ccc1C(C)C)C(O)c1cccc([N+](=O)[O-])c1 (centres unmarked) , I found its pIC50 recorded as 4.98

Looking up C=CCc1ccc(OC(=O)C(=C)C(O)c2ccc([N+](=O)[O-])cc2)c(OC)c1 (centres unmarked) , I found its pIC50 recorded as 5.06

Looking up C=CCc1ccc(OC(=O)C(=C)C(O)c2cccc([N+](=O)[O-])c2)c(OC)c1 (centres unmarked) , I found its pIC50 recorded as 4.98

meta.source: paper PMC6274563
